// provenance: PubChem BioAssay (Tox21)

assay-explanation: qHTS RealTime-Glo MT Cell Viability Assay in HEK293 cells - 16 hour (AID 1224872); also: nearly all actives have a fitted effect of over 50% in size; also: potency is read from the fitted curve at half-maximal effect
condition-details: RealTime-Glo luminescence; series mostly up to 76.8 µM
Results filed as inconclusive are left out. Active and inactive are the calls of the source. Calls follow the shape of the dose curve; as a rule, active = well fitted cell-killing curve with a large enough effect in the repeat runs; inconclusive = weak or mixed curves, or effect the other way; inactive = flat fitted curve, though single readings scatter.
property-measured: Potency

INSERT INTO assay_data (smiles_data, property_measured, measured) VALUES
  ('Oc1ccc2c(c1)Cc1ccccc1-2', 'Potency', '21.9 µM (active)'),
  ('O=NN(CCCl)C(=O)NCCCl', 'Potency', 'inactive'),
  ('Cc1cc(CCC(=O)OCCOCCOCCOC(=O)CCc2cc(C)c(O)c(C(C)(C)C)c2)cc(C(C)(C)C)c1O', 'Potency', 'inactive'),
  ('O=C1OC(=O)c2c(Br)c(Br)c(Br)c(Br)c21', 'Potency', 'inactive'),
  ('O=C(O)CCC(=O)c1ccc(-c2ccccc2)cc1', 'Potency', 'inactive');

For the next question, use this molecule.
Lookup: Please give measured Potency of the following entry: `O=C(O)CNC(=O)c1ccccc1I`
Found: inactive
